Molecular target: IL16_1, Q14005
Sequence (Q14005 210-306): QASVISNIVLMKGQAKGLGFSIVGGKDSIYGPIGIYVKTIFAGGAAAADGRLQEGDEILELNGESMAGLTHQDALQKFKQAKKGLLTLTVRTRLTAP
Experiment: holdup assay
Parameters: key: below the threshold = too weak to quantify, mostly under pKd 3.1 to 4
Details: plain residues with an end cap or a label only (N-terminal biotin on a linker: ado-ado)
Label TRUE when pKd is at or above 4; anything below gets FALSE.

{"binder": "KSRVAFFEEL [NF2, P35240]", "cat": "FALSE"}
{"binder": "REEPDHSTEV [CCRL2, O00421]", "cat": "FALSE"}
{"binder": "NISYRRESAI [KCNJ4, P48050]", "cat": "FALSE"}
{"binder": "NIAESLESLV [PTPRZ1, P23471]", "cat": "TRUE"}
{"binder": "QLSFNTDTLC [ABCA2, Q9BZC7]", "cat": "FALSE"}
{"binder": "TNSRHGETTV [FZD2, Q14332]", "cat": "FALSE"}
{"binder": "RQKEVRESKC [SCN8A, Q9UQD0]", "cat": "FALSE"}
{"binder": "TRKRSGEAAV [PFKM, P08237]", "cat": "FALSE"}
{"binder": "DGVNEKVSCV [HTR2A, P28223]", "cat": "TRUE"}

The values you see were collected from paper PMC9482650.
